Tested on: Escherichia coli TOP10
Method description: shrunken log2 fold change of peptide-encoding DNA abundance (4.5 h post-induction vs induction); higher = less antimicrobial activity (less host growth inhibition)
Condition parameters: time post-induction: 4.5 h; library: site-saturation at positions 5, 18, 19, 20
// values below are reported shrunken log2 fold change
Give a plain numeric answer without units written out.

Study these solved cases before continuing.
| Sequence entry | Measured attribute | Recorded value |
| --- | --- | --- |
| RRIRPRPPRLPRPRPRPTYRPRP | shrunken log2 fold change | -0.236 |
| RRIRHRPPRLPRPRPRPFGQPRP | shrunken log2 fold change | -0.162 |
| RRIRTRPPRLPRPRPRPPMSPRP | shrunken log2 fold change | -0.0702 |
| RRIRARPPRLPRPRPRPLCAPRP | shrunken log2 fold change | 0.704 |
| RRIRYRPPRLPRPRPRPQLCPRP | shrunken log2 fold change | -0.0902 |
| RRIRGRPPRLPRPRPRPYFIPRP | shrunken log2 fold change | -0.336 |
| RRIRWRPPRLPRPRPRPIKCPRP | shrunken log2 fold change | -0.0271 |
| RRIRMRPPRLPRPRPRPDLTPRP | shrunken log2 fold change | 0.869 |
| RRIRERPPRLPRPRPRPVLHPRP | shrunken log2 fold change | -0.0594 |
| RRIRYRPPRLPRPRPRPDVMPRP | shrunken log2 fold change | 0.0199 |

Data point: `RRIRTRPPRLPRPRPRPVKKPRP` ; shrunken log2 fold change = 0.0316

Data point: `RRIRWRPPRLPRPRPRPASFPRP` ; shrunken log2 fold change = -0.0603

---

System: Escherichia coli TOP10
Method description: shrunken log2 fold change of peptide-encoding DNA abundance (4.5 h post-induction vs induction); higher = less antimicrobial activity (less host growth inhibition)
Condition parameters: time post-induction: 4.5 h; library: site-saturation at positions 5, 18, 19, 20
// values below are reported shrunken log2 fold change

Study these solved cases before continuing.
| Sequence entry | Tested on | Recorded value |
| --- | --- | --- |
| RRIRFRPPRLPRPRPRPHCDPRP | Escherichia coli TOP10 | -0.252 |
| RRIRQRPPRLPRPRPRPTKYPRP | Escherichia coli TOP10 | -0.257 |
| RRIRTRPPRLPRPRPRPHCHPRP | Escherichia coli TOP10 | -0.0122 |
| RRIRMRPPRLPRPRPRPNTKPRP | Escherichia coli TOP10 | -0.0097 |
| RRIRPRPPRLPRPRPRPGFFPRP | Escherichia coli TOP10 | 0.216 |

Summary line: `RRIRFRPPRLPRPRPRPHIEPRP` , Escherichia coli TOP10, reported shrunken log2 fold change = -0.0641

Summary line: `RRIRQRPPRLPRPRPRPSNWPRP` , Escherichia coli TOP10, reported shrunken log2 fold change = -0.227

Summary line: `RRIRWRPPRLPRPRPRPFHFPRP` , Escherichia coli TOP10, reported shrunken log2 fold change = -0.451

Summary line: `RRIRGRPPRLPRPRPRPEVMPRP` , Escherichia coli TOP10, reported shrunken log2 fold change = 1.41

Summary line: `RRIRNRPPRLPRPRPRPWDFPRP` , Escherichia coli TOP10, reported shrunken log2 fold change = -0.00226

Summary line: `RRIRNRPPRLPRPRPRPHWFPRP` , Escherichia coli TOP10, reported shrunken log2 fold change = -0.318

Summary line: `RRIRVRPPRLPRPRPRPPLKPRP` , Escherichia coli TOP10, reported shrunken log2 fold change = 0.343

Summary line: `RRIRTRPPRLPRPRPRPQPIPRP` , Escherichia coli TOP10, reported shrunken log2 fold change = 0.0337

Summary line: `RRIRWRPPRLPRPRPRPGRPPRP` , Escherichia coli TOP10, reported shrunken log2 fold change = 0.42

Summary line: `RRIRRRPPRLPRPRPRPHRLPRP` , Escherichia coli TOP10, reported shrunken log2 fold change = 0.0507

Summary line: `RRIRARPPRLPRPRPRPTDPPRP` , Escherichia coli TOP10, reported shrunken log2 fold change = 0.2

Summary line: `RRIRLRPPRLPRPRPRPCADPRP` , Escherichia coli TOP10, reported shrunken log2 fold change = 0.151

Summary line: `RRIRWRPPRLPRPRPRPNRLPRP` , Escherichia coli TOP10, reported shrunken log2 fold change = -0.0743

Summary line: `RRIRNRPPRLPRPRPRPLPNPRP` , Escherichia coli TOP10, reported shrunken log2 fold change = -0.0288

Summary line: `RRIRCRPPRLPRPRPRPWGDPRP` , Escherichia coli TOP10, reported shrunken log2 fold change = -0.142

Summary line: `RRIRPRPPRLPRPRPRPYQKPRP` , Escherichia coli TOP10, reported shrunken log2 fold change = 0.0104

---

Tested on: Escherichia coli TOP10
Method description: shrunken log2 fold change of peptide-encoding DNA abundance (4.5 h post-induction vs induction); higher = less antimicrobial activity (less host growth inhibition)
Condition parameters: time post-induction: 4.5 h; library: site-saturation at positions 5, 18, 19, 20
Measured attribute: shrunken log2 fold change
Give a plain numeric answer without units written out.

Study these solved cases before continuing.
| Sequence entry | Tested on | Recorded value |
| --- | --- | --- |
| RRIRNRPPRLPRPRPRPSDKPRP | Escherichia coli TOP10 | -0.363 |
| RRIRRRPPRLPRPRPRPGYNPRP | Escherichia coli TOP10 | -0.27 |
| RRIRYRPPRLPRPRPRPTVFPRP | Escherichia coli TOP10 | -0.317 |

Query sequence follows.
Data point: `RRIRIRPPRLPRPRPRPYVAPRP` ; shrunken log2 fold change = -0.674

---

Tested on: Escherichia coli TOP10
Method description: shrunken log2 fold change of peptide-encoding DNA abundance (4.5 h post-induction vs induction); higher = less antimicrobial activity (less host growth inhibition)
Condition parameters: time post-induction: 4.5 h; library: site-saturation at positions 5, 18, 19, 20
Measured attribute: shrunken log2 fold change

Study these solved cases before continuing.
| Sequence entry | shrunken log2 fold change |
| --- | --- |
| RRIRLRPPRLPRPRPRPCGNPRP | 0.0862 |
| RRIRYRPPRLPRPRPRPDIQPRP | -0.349 |
| RRIRIRPPRLPRPRPRPTKHPRP | -0.528 |

Data point: `RRIRKRPPRLPRPRPRPWQQPRP` ; shrunken log2 fold change = 0.608

Data point: `RRIRHRPPRLPRPRPRPMNDPRP` ; shrunken log2 fold change = -0.108

Data point: `RRIRHRPPRLPRPRPRPRWHPRP` ; shrunken log2 fold change = 0.102

Data point: `RRIRDRPPRLPRPRPRPGLIPRP` ; shrunken log2 fold change = 0.0516

Data point: `RRIRWRPPRLPRPRPRPKMWPRP` ; shrunken log2 fold change = 0.737

---

Tested on: Escherichia coli TOP10
Method description: shrunken log2 fold change of peptide-encoding DNA abundance (4.5 h post-induction vs induction); higher = less antimicrobial activity (less host growth inhibition)
Condition parameters: time post-induction: 4.5 h; library: site-saturation at positions 5, 18, 19, 20
// values below are reported shrunken log2 fold change

| Sequence entry | Recorded value |
| --- | --- |
| RRIRDRPPRLPRPRPRPFEDPRP | 0.265 |

Data point: `RRIRGRPPRLPRPRPRPLCEPRP` ; shrunken log2 fold change = 1.22

Data point: `RRIRCRPPRLPRPRPRPCHKPRP` ; shrunken log2 fold change = -0.0857

Data point: `RRIRNRPPRLPRPRPRPFAHPRP` ; shrunken log2 fold change = -0.00369

Data point: `RRIRMRPPRLPRPRPRPVMVPRP` ; shrunken log2 fold change = 0.0724

Data point: `RRIRKRPPRLPRPRPRPISGPRP` ; shrunken log2 fold change = -7.33e-05

Data point: `RRIRDRPPRLPRPRPRPQFPPRP` ; shrunken log2 fold change = 0.0234

Data point: `RRIRTRPPRLPRPRPRPQFLPRP` ; shrunken log2 fold change = -0.352

---

System: Escherichia coli TOP10;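 note: peptides expressed intracellularly from a pBAD plasmid library in pooled LB shake-flask culture, induced with 0.3% L-arabinose, DNA abundance read by NGS, three biological replicates, DESeq2 with apeglm shrinkage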
Method description: shrunken log2 fold change of peptide-encoding DNA abundance (4.5 h post-induction vs induction); higher = less antimicrobial activity (less host growth inhibition)
Condition parameters: time post-induction: 4.5 h; library: site-saturation at positions 5, 18, 19, 20
Measured attribute: shrunken log2 fold change

Study these solved cases before continuing.
| Sequence entry | Recorded value |
| --- | --- |
| RRIRVRPPRLPRPRPRPYTRPRP | -0.0163 |
| RRIRARPPRLPRPRPRPHLIPRP | -0.0757 |
| RRIRVRPPRLPRPRPRPVEHPRP | 0.00181 |
| RRIRRRPPRLPRPRPRPTTLPRP | 0.0363 |
| RRIRLRPPRLPRPRPRPYDIPRP | 0.00601 |

Data point: `RRIRWRPPRLPRPRPRPCGAPRP` ; shrunken log2 fold change = 0.525

Data point: `RRIRDRPPRLPRPRPRPRCKPRP` ; shrunken log2 fold change = -0.0316

Data point: `RRIRRRPPRLPRPRPRPWMCPRP` ; shrunken log2 fold change = 0.214

Data point: `RRIRMRPPRLPRPRPRPCLPPRP` ; shrunken log2 fold change = 0.154
